Recorded values, source patent US20260355325A1.

tgt: BRD4 (Homo sapiens)
Construct: Flp-In LgBiT HEK293 cells; lytic luminescence degradation readout
experiment: BRD4 HiBiT Assay (degradation of endogenous BRD4 in HiBiT knock-in Flp-In LgBiT HEK293 cells)
Assay type: cell-based
experimentalContext: BRD4 degradation in cells at 6-hour timepoint
Reported DC50 values follow for various compounds
measurementLabel: DC50

Cc1ncsc1-c1ccc(CNC(=O)[C@@H]2C[C@@H](O)CN2C(=O)[C@@H](NC(=O)CCc2cccc(F)c2B2O[C@H]3C[C@H]4C[C@H](C4(C)C)[C@@]3(CCNC(=O)C[C@@H]3N=C(c4ccc(Cl)cc4)c4c(sc(C)c4C)-n4c(C)nnc43)O2)C(C)(C)C)cc1; < 100 nM
Cc1sc2c(c1C)C(c1ccc(Cl)cc1)=N[C@@H](CC(=O)NCCC[C@]13OB(c4ccccc4CCCC(=O)Nc4cccc5c4C(=O)N(C4CCC(=O)NC4=O)C5=O)O[C@H]1C[C@H]1C[C@@H]3C1(C)C)c1nnc(C)n1-2 (some centres unmarked); < 100 nM

###

tgt: BRD4 (Homo sapiens, UniProt O60885)
Construct: Flp-In LgBiT HEK293 cells; lytic luminescence degradation readout
experiment: BRD4 HiBiT Assay (degradation of endogenous BRD4 in HiBiT knock-in Flp-In LgBiT HEK293 cells)
Type: cell-based
experimentalContext: BRD4 degradation in cells at 6-hour timepoint
Reported DC50 values follow for various molecules
measurementLabel: DC50

Cc1ncsc1-c1ccc(CNC(=O)[C@@H]2C[C@@H](O)CN2C(=O)C(c2cc(OCc3ccccc3B3O[C@@H]4C[C@@H]5C[C@@H](C5(C)C)[C@]4(CCNC(=O)C[C@@H]4N=C(c5ccc(Cl)cc5)c5c(sc(C)c5C)-n5c(C)nnc54)O3)no2)C(C)C)cc1 (single isomer, unassigned); < 100 nM
Cc1sc2c(c1C)C(c1ccc(Cl)cc1)=N[C@@H](CC(=O)NCCC[C@@]13OB(c4ccccc4CCC4CN(c5ccc(N6CCC(=O)NC6=O)cc5)C4)O[C@@H]1C[C@@H]1C[C@H]3C1(C)C)c1nnc(C)n1-2; < 100 nM
Cc1ncsc1-c1ccc([C@H](C)NC(=O)[C@@H]2C[C@@H](O)CN2C(=O)[C@@H](NC(=O)CCc2ccccc2B2O[C@H]3C[C@H]4C[C@H](C4(C)C)[C@@]3(CCCNC(=O)C[C@@H]3N=C(c4ccc(Cl)cc4)c4c(sc(C)c4C)-n4c(C)nnc43)O2)C(C)(C)C)cc1; < 100 nM
Cc1ncsc1-c1ccc(CNC(=O)[C@@H]2C[C@@H](O)CN2C(=O)[C@@H](NC(=O)CCc2ccccc2B2O[C@H]3C[C@H]4C[C@H](C4(C)C)[C@@]3(CCCNC(=O)C[C@@H]3N=C(c4ccc(Cl)cc4)c4c(sc(C)c4C)-n4c(C)nnc43)O2)C(C)(C)C)cc1; < 100 nM

###

tgt: BTK (Homo sapiens)
Construct: immunofluorescence degradation readout, 48 h
Sequence (Q06187 whole entry): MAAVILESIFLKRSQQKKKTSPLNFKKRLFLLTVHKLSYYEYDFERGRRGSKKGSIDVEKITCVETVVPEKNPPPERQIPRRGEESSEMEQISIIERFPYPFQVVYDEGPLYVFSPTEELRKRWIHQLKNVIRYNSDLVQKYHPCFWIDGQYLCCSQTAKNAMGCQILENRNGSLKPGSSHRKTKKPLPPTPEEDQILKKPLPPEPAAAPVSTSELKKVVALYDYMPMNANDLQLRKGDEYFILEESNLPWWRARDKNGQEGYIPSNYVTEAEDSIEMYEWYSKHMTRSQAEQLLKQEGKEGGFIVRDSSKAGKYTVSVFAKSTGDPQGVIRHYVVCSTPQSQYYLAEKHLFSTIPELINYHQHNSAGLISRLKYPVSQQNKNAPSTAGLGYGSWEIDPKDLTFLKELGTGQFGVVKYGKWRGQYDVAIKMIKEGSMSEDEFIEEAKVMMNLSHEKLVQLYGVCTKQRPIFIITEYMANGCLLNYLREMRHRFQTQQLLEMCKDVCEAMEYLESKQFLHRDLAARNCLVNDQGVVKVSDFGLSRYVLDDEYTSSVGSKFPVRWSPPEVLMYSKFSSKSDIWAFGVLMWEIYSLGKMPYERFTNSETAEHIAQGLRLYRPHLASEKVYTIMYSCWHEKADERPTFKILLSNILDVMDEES
experiment: BTK IFA Assay (BTK degradation in OCI-Ly10 cells)
Assay type: cell-based
experimentalContext: BTK degradation in OCI-Ly10 cells at 48-hour timepoint
Reported DC50 values follow for various molecules
measurementLabel: DC50

Cc1cc(C(=O)N(C)CCCOc2cccc3c2CN(C2CCC(=O)NC2=O)C3=O)ccc1B1O[C@H]2C[C@H]3C[C@H](C3(C)C)[C@@]2(CCOCC(=O)N2CCC(n3nc(-c4ccc(Oc5ccccc5)cc4)c4c(N)ncnc43)CC2)O1 (stereo partly shown); 500 to 1000 nM
Cc1cc(C(=O)NCCC#Cc2cccc3c2CN(C2CCC(=O)NC2=O)C3=O)ccc1B1O[C@H]2C[C@H]3C[C@H](C3(C)C)[C@@]2(CCOCCN2CCC(n3nc(-c4ccc(Oc5ccccc5)cc4)c4c(N)ncnc43)CC2)O1 (mixture of isomers); 100 to 500 nM
Cc1cc(C(=O)N(C)CCCOc2ccc3c(c2)n(C)c(=O)n3C2CCC(=O)NC2=O)ccc1B1O[C@H]2C[C@H]3C[C@H](C3(C)C)[C@@]2(CCOCCN2CCC(n3nc(-c4ccc(Oc5ccccc5)cc4)c4c(N)ncnc43)CC2)O1 (stereo partly shown); 100 to 500 nM
Cc1ccc(C(=O)N(C)CCCOc2cccc3c2CN(C2CCC(=O)NC2=O)C3=O)cc1B1O[C@H]2C[C@H]3C[C@H](C3(C)C)[C@@]2(CCOCC(=O)N2CCC(n3nc(-c4ccc(Oc5ccccc5)cc4)c4c(N)ncnc43)CC2)O1 (mixture of isomers); 500 to 1000 nM
Cc1cc(C(=O)N(C)CCOc2cccc3c2CN(C2CCC(=O)NC2=O)C3=O)ccc1B1O[C@H]2C[C@H]3C[C@H](C3(C)C)[C@@]2(CCOCC(=O)N2CCC(n3nc(-c4ccc(Oc5ccccc5)cc4)c4c(N)ncnc43)CC2)O1 (mixture of isomers); 1000 to 10000 nM
Cc1cc(C(=O)N(C)CCCOc2ccc3c(c2)n(C)c(=O)n3C2CCC(=O)NC2=O)ccc1B1O[C@H]2C[C@H]3C[C@H](C3(C)C)[C@@]2(CCOCC(=O)N2CCC(n3nc(-c4ccc(Oc5ccccc5)cc4)c4c(N)ncnc43)CC2)O1 (mixture of isomers); 500 to 1000 nM
Cc1cc(C(=O)NCCC#Cc2cccc3c2CN(C2CCC(=O)NC2=O)C3=O)ccc1B1O[C@H]2C[C@H]3C[C@H](C3(C)C)[C@@]2(CCOCC(=O)N2CCC(n3nc(-c4ccc(Oc5ccccc5)cc4)c4c(N)ncnc43)CC2)O1 (mixture of isomers); 100 to 500 nM
